target: recombinant form of Glutaminase 1 (GAC) (Homo sapiens); test: Recombinant Enzyme Assay (no preincubation); assay type: biochemical; settings: read-out: GAC Delta N2 IC50 no preinc
Sequence (O94925 137-598 isoform O94925-3 limits assumed): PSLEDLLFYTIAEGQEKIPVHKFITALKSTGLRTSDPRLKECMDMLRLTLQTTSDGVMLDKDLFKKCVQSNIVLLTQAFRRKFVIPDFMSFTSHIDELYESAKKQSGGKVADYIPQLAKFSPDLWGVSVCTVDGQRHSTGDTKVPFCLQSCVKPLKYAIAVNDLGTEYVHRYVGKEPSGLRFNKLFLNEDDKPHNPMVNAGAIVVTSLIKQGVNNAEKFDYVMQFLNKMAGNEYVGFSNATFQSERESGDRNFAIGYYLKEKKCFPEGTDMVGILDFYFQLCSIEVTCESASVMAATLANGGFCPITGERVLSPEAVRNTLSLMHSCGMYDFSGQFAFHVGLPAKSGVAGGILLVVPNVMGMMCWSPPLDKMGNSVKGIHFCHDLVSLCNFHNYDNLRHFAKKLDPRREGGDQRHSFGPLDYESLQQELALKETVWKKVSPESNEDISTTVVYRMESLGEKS
Form field: IC50 (one value per entry).
Please give a number only; it is taken to be in µM.

[
  {
    "Compound": "O=C(Cc1cccc(F)c1)Nc1nnc(CCCCc2nnc(NC(=O)C[C@@H](O)C(=O)O)s2)s1",
    "Recorded value": 1
  }
]

We now examine a further compound.
Req: Could you share what IC50 was measured for O=C(COC(C(=O)Nc1nnc(CCCCc2nnc(NC(=O)C(COC(=O)C3CCNCC3)c3ccccc3)s2)s1)c1ccccc1)C1CCNCC1 (stereo not drawn) , tested on recombinant form of Glutaminase 1 (GAC) (Homo sapiens)?
Resp: 7
